Listing of recorded pIC50 by entry.
- target-or-system: CDK2/CyclinA (Homo sapiens, UniProt P24941)
- protocol-text: Kinase assay determining CDK2/CyclinA activity
- run-conditions: read-out: CDK2 (activity range)
pIC50: −log10 of the molar value.

Previously resolved entries follow.
{"compound": "COc1ccccc1-c1cc(Nc2cccc(S(N)(=O)=O)c2)ncn1", "target-or-system": "CDK2/CyclinA (Homo sapiens, UniProt P24941)", "pIC50": "6.00 to 9.00"}
{"compound": "COc1ccccc1-c1cc(Nc2ccc(NC(=O)C34CC5CC(CC(C5)C3)C4)cc2)ncn1", "target-or-system": "CDK2/CyclinA (Homo sapiens, UniProt P24941)", "pIC50": "3.60 to 5.00"}
{"compound": "CC(C)(C)C(=O)Nc1ccc(Nc2cc(Cl)ncn2)cc1", "target-or-system": "CDK2/CyclinA (Homo sapiens, UniProt P24941)", "pIC50": "3.60 to 5.00"}
{"compound": "COc1ccc(-c2cc(Nc3ccc(NC(=O)[C@@H]4CCCCN4)cc3)ncn2)c(OC)c1", "target-or-system": "CDK2/CyclinA (Homo sapiens, UniProt P24941)", "pIC50": "5.00 to 6.00"}
{"compound": "COc1ccccc1-c1cc(Nc2ccc(NC(=O)NCc3ccc(C)cc3)cc2)ncn1", "target-or-system": "CDK2/CyclinA (Homo sapiens, UniProt P24941)", "pIC50": "3.60 to 5.00"}

Let us examine a further case.
Provide pIC50, system CDK2/CyclinA (Homo sapiens, UniProt P24941), entry CCCN(c1ccc(Nc2cc(-c3ccccc3OC)ncn2)cc1)S(=O)(=O)c1ccc(C)cc1
3.60 to 5.00

* * *

- target-or-system: CDK2/CyclinA (Homo sapiens)
- protocol-text: Kinase assay determining CDK2/CyclinA activity
- run-conditions: read-out: CDK2 (activity range)
pIC50: −log10 of the molar value.
readout-label: pIC50

{"compound": "COc1ccccc1-c1cc(Nc2ccc(NC(=O)c3ccc(N)cc3)cc2)nc(N)n1", "pIC50": "3.60 to 5.00"}
{"compound": "Nc1ccc(C(=O)Nc2ccc(Nc3cc(Cl)ncn3)cc2)cc1", "pIC50": "3.60 to 5.00"}
{"compound": "Nc1cccc(-c2cc(Nc3cccc(S(N)(=O)=O)c3)ncn2)c1", "pIC50": "5.00 to 6.00"}
{"compound": "CS(=O)(=O)Nc1cccc(-c2cc(Nc3ccc(C(=O)N[C@@H]4CCCC[C@H]4N)cc3)ncn2)c1 (racemic)", "pIC50": "5.00 to 6.00"}

For the compound Nc1cccc(-c2cc(Nc3ccc(S(N)(=O)=O)cc3)ncn2)c1 , give its reported pIC50.
6.00 to 9.00

For the compound COc1ccccc1-c1cc(Nc2ccc(C(=O)Nc3ccccc3)cc2)ncn1 , give its reported pIC50.
3.60 to 5.00

For the compound COc1ccccc1-c1cc(Nc2ccc(C(=O)NC3CCCCC3)cc2)ncn1 , give its reported pIC50.
5.00 to 6.00

For the compound COc1ccccc1-c1cc(Nc2ccc(NC(=O)c3ccc(N)cc3)cc2)ncn1 , give its reported pIC50.
5.00 to 6.00

For the compound COc1ccccc1-c1cc(Nc2ccc(NC(=O)[C@@H]3CCCCN3C(=O)OC(C)(C)C)cc2)ncn1 , give its reported pIC50.
5.00 to 6.00

Numbers sourced from patent US8084457B2.
